# System: P. vulgatus RND KO;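 note: active when median AUC fell below 0.1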
# method: growth AUC normalised to DMSO control (median) (fraction of control); higher = less growth inhibition, active = hit call of the paper
# settings: 20 µM
Where a name gives a salt, the structure may show the parent alone.
endpoint label: growth AUC normalised to DMSO control

Asked: Consider the molecule CCCCCCC[N+](CC)(CC)CCCCc1ccc(Cl)cc1 [Clofilium tosylate] . State its measured growth AUC normalised to DMSO control.
Given back: 0.973 (inactive)

Asked: Retrieve growth AUC normalised to DMSO control measured for NC(=O)Cc1cccc(C(=O)c2ccccc2)c1N [Nepafenac] and print it.
Given back: 1.03 (inactive)

Asked: Answer with the recorded growth AUC normalised to DMSO control for the molecule listed here: CCN(CC)CCOC(=O)C(Cc1cccc2ccccc12)CC1CCCO1 (stereo not drawn) [Nafronyl oxalate]
Given back: 0.993 (inactive)

Asked: Supply growth AUC normalised to DMSO control value. Item: NC[C@@H]1O[C@H](O[C@H]2[C@@H](O)[C@H](O[C@@H]3[C@@H](O)[C@H](N)C[C@H](N)[C@H]3O[C@H]3O[C@H](CO)[C@@H](O)[C@H](O)[C@H]3N)O[C@@H]2CO)[C@H](N)[C@@H](O)[C@@H]1O [Paromomycin sulfate]
Given back: 1 (inactive)

Asked: Give the reported value of growth AUC normalised to DMSO control for this record: CC(=O)[C@H]1CC[C@H]2[C@@H]3C=CC4=CC(=O)CC[C@@]4(C)[C@@H]3CC[C@]12C [Dydrogesterone]
Given back: 1.02 (inactive)

Asked: Quick one: give measured growth AUC normalised to DMSO control for CN(C)C(=O)COC(=O)Cc1ccc(OC(=O)c2ccc(NC(=N)N)cc2)cc1 [Camostat mesylate]
Given back: 1.02 (inactive)

Asked: Report measured growth AUC normalised to DMSO control; entry is CNCC[C@@H](Oc1ccccc1C)c1ccccc1 [Tomoxetine hydrochloride]
Given back: 0.954 (inactive)

Asked: Return growth AUC normalised to DMSO control for the following molecule: COc1cc(Nc2c(C#N)cnc3cc(OCCCN4CCN(C)CC4)c(OC)cc23)c(Cl)cc1Cl [Bosutinib]
Given back: 1 (inactive)

Asked: Quickly give me recorded growth AUC normalised to DMSO control for COc1ccc(CN(CCN(C)C)c2ccccn2)cc1 [Pyrilamine maleate]
Given back: 0.986 (inactive)

Asked: Supply growth AUC normalised to DMSO control value. Item: CC1CCc2cc(F)cc3c(=O)c(C(=O)O)cn1c23 (stereo not drawn) [Flumequine]
Given back: 0.801 (inactive)

Asked: Tell me growth AUC normalised to DMSO control reported for O=C(NCCO[N+](=O)[O-])c1cccnc1 [Nicorandil]
Given back: 0.986 (inactive)

Asked: Give me measured growth AUC normalised to DMSO control, please, for this molecule: CC1(C)S[C@@H]2[C@H](NC(=O)C(C(=O)O)c3ccccc3)C(=O)N2[C@H]1C(=O)O (stereo partly drawn) [Carbenicillin disodium salt]
Given back: 0.0099 (active)

Asked: Provide measured growth AUC normalised to DMSO control value, entry: O=C(O)Cc1ccccc1Nc1c(Cl)cccc1Cl [Diclofenac sodium]
Given back: 0.95 (inactive)

Asked: Tell me growth AUC normalised to DMSO control reported for NS(=O)(=O)c1cc2c(cc1Cl)NC(C(Cl)Cl)NS2(=O)=O (stereo not drawn) [Trichlormethiazide]
Given back: 0.974 (inactive)

Asked: Complete the entry with growth AUC normalised to DMSO control for CCC(Cc1c(I)cc(I)c(N)c1I)C(=O)O (stereo not drawn) [Iopanoic acid]
Given back: 0.999 (inactive)

Asked: Determine its reported growth AUC normalised to DMSO control: CCCOc1ccc(C(=O)OCCN(CC)CC)cc1N [Proparacaine hydrochloride]
Given back: 1.03 (inactive)

Asked: Check the records and state growth AUC normalised to DMSO control for CC(=O)OC(C)OC(=O)C(C)c1ccc(-c2ccccc2)c(F)c1 (stereo not drawn) [Flurbiprofen axetil]
Given back: 1.09 (inactive)

Asked: Hello, please tell me recorded growth AUC normalised to DMSO control for this one: OCCN1CCN(CC/C=C2/c3ccccc3Sc3ccc(Cl)cc32)CC1 [Zuclopenthixol dihydrochloride]
Given back: 0.928 (inactive)

Asked: Respond only with growth AUC normalised to DMSO control recorded for CN(C)CCOc1ccc(/C(=C(/CCCl)c2ccccc2)c2ccccc2)cc1 [Toremifene]
Given back: 0.973 (inactive)

Asked: Return the recorded growth AUC normalised to DMSO control value; entry: NS(=O)(=O)c1cc2c(cc1Cl)N=C(CSCc1ccccc1)NS2(=O)=O [Benzthiazide]
Given back: 0.99 (inactive)

Asked: Dear colleague, please send me the reported growth AUC normalised to DMSO control for CO[C@H]1/C=C/O[C@@]2(C)Oc3c(C)c(O)c4c(O)c(c(/C=N/N5CCN(C6CCCC6)CC5)c(O)c4c3C2=O)NC(=O)/C(C)=C\C=C\[C@H](C)[C@H](O)[C@@H](C)[C@@H](O)[C@@H](C)[C@H](OC(C)=O)[C@@H]1C [Rifapentine] when you can.
Given back: 0.0203 (active)

Asked: Return growth AUC normalised to DMSO control (reported value) for this molecule: CCC1NC(=O)c2cc(S(N)(=O)=O)c(Cl)cc2N1 (stereo not drawn) [Quinethazone]
Given back: 1.06 (inactive)

Asked: Look up growth AUC normalised to DMSO control of COc1cc(C(=O)NC2CCCNC2)cc(OC)c1OC (stereo not drawn) [Troxipide] and report it.
Given back: 1.07 (inactive)
